These measurements were taken from patent US20140194392A1.

Molecular target: NA of influenza NIBRG14 (H5N1) (Influenza A virus)
Sequence (Q6DPL2 whole entry, looked up): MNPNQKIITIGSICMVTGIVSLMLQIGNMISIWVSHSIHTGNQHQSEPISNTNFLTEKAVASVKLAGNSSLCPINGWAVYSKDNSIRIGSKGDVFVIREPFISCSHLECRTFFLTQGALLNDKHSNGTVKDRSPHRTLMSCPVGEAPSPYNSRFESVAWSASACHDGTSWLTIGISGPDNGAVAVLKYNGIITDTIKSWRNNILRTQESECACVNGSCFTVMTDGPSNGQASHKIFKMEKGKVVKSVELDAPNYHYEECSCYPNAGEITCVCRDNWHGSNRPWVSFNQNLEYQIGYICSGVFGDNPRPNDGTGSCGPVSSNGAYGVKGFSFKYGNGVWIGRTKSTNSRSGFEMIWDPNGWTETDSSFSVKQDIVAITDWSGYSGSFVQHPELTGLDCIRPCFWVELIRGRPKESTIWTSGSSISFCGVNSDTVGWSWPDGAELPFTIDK
experimentalReadout: IC50 (µM)
Write it as a number; the unit µM goes unstated.

# input compound: Nc1c(S(=O)(=O)O)cc(Nc2cccc(S(=O)(=O)CCOS(=O)(=O)O)c2)c2c1C(=O)c1ccccc1C2=O [RB19, remazol brilliant blue R] ; wanted: its IC50 5.7
